- Tested on: ARG1
- experimentSummary: RNA-seq, ARG1 expression in compound-treated primary human hepatocytes
- Assay type: cell-based
- testConditions: RNA-seq, primary human hepatocytes, compounds that significantly increase ARG1 expression
observationType: ARG1 expression, Fold change (Log 2) vs untreated
Numbers only, in Log 2.

molecule Wnt3a: WNT family secreted signaling protein; FRIZZLED activator (protein, UniProt P56704 19-352, looked up) Protein Wnt-3a: SYPIWWSLAVGPQYSSLGSQPILCASIPGLVPKQLRFCRNYVEIMPSVAEGIKIGIQECQHQFRGRRWNCTTVHDSLAIFGPVLDKATRESAFVHAIASAGVAFAVTRSCAEGTAAICGCSSRHQGSPGKGWKWGGCSEDIEFGGMVSREFADARENRPDARSAMNRHNNEAGRQAIASHMHLKCKCHGLSGSCEVKTCWWSQPDFRAIGDFLKDKYDSASEMVVEKHRESRGWVETLRPRYTYFKVPTERDLVYYEASPNFCEPNPETGSFGTRDRTCNVSSHGIDGCDLLCCGRGHNARAERRREKCRCVFHWCCYVSCQECTRVYDVHTCK , ARG1 expression, Fold change (Log 2) vs untreated observed: 2.07
